Recorded measurements of protein stability index, one per entry
- test_details: protein stability index of a GFP-peptide fusion (GPS, HEK-293T) (PSI 1-6); higher = more stable;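 also: 24-mer peptide tiles fused after GFP, lentivirally expressed, FACS-sorted into six equal bins by GFP/DsRed ratio, decoded by Illumina sequencing, PSI is the read-weighted mean bin number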
- assay_conditions: treatment: MLN4924 1 uM, 8 h; c terminus: a fixed tail appended
Reply with the value as a number alone.

Example entries and their recorded answers appear below.
DSQQPGKRRKDSEEEAASPEGKRV [FANCE]	5.5
EERNRFTETREEDVTDEHGEREPF [FAM9B]	5.58
DIVFSKIKGKSCRTITFEQFQEAL [TPPP]	2.31
GLEALAGGDLMPAPADPTAREGLA [FCHO1]	5.23
CSRTWTNRLCHQEMGSKKTVTQED [SPAG8]	3.74

Entry SKCKIIHTDIKPENILMCVDDAYV [SRPK2] ; protein stability index = 2.5

For AEVVKILQTMLRQSAFLHLPLPEQ [INTS4] the sequence record lists protein stability index as 2.89
